Numbers sourced from patent EP4755880A1.

target: PARP1 (Homo sapiens); experiment: Inhibition of PARP1 enzyme activity (ELISA, chemiluminescence); assay type: biochemical; conditions: ELISA, histone-coated plate, NAD+, 60 min at 25 °C
Response field label takes rule met when IC50 is strictly below 3 nM and rule not met in all other cases.

Some entries whose results are on file:
[[record]]
molecule = "CNC(=O)c1ccc(N2CCN(Cc3cc(C4CC4)c4nc(C)c(=O)[nH]c4c3F)CC2)c(F)n1 [Example 19]"
category = "rule met"

[[record]]
molecule = "CNC(=O)c1ccc(N2CCN(Cc3cc(OC(F)(F)F)c4nc(C)c(=O)[nH]c4c3)CC2)c(F)n1 [Example 17]"
category = "rule not met"

[[record]]
molecule = "CNC(=O)c1ccc(N2CCN(Cc3cc(Oc4ccncc4)c4nc(C)c(=O)[nH]c4c3)CC2)c(F)n1 [Example 29]"
category = "rule not met"

[[record]]
molecule = "CNC(=O)c1ccc(N2CCN(Cc3cc(-c4cccc(OC)c4)c4nc(C)c(=O)[nH]c4c3)CC2)c(F)n1 [Example 73]"
category = "rule not met"

[[record]]
molecule = "CNC(=O)c1ccc(N2CCN(Cc3cc(OC(F)F)c4cc(C)c(=O)[nH]c4c3)CC2)c(F)n1 [Example 55]"
category = "rule met"


INPUT: # check: IC50 < 3 nM for CNC(=O)c1ccc(N2CCN(Cc3cc(-c4cccc(F)c4)c4nc(C)c(=O)[nH]c4c3)CC2)c(F)n1 [Example 9]
OUTPUT: rule met

INPUT: # check: IC50 < 3 nM for CC#Cc1cc(CN2CCN(c3ccc(C(=O)NC)nc3C)CC2)c(F)c2[nH]c(=O)c(C)nc12 [Example 45]
OUTPUT: rule not met

INPUT: # check: IC50 < 3 nM for CNC(=O)c1ccc(N2CCN(Cc3cc(OC(C)C(F)(F)F)c4nc(C)c(=O)[nH]c4c3)CC2)c(F)n1 (stereo not drawn) [Example 34]
OUTPUT: rule met

INPUT: # check: IC50 < 3 nM for CNC(=O)c1ccc(N2CCN(Cc3cc(C#CC4CC4)c4nc(C)c(=O)[nH]c4c3F)CC2)c(F)n1 [Example 22]
OUTPUT: rule not met

* * *

target: PARP1 (Homo sapiens, UniProt P09874); assay: Inhibition of PARP1 enzyme activity (ELISA, chemiluminescence); format: biochemical; details: ratio of PARP2 IC50 to PARP1 IC50
Sequence (P09874 whole entry): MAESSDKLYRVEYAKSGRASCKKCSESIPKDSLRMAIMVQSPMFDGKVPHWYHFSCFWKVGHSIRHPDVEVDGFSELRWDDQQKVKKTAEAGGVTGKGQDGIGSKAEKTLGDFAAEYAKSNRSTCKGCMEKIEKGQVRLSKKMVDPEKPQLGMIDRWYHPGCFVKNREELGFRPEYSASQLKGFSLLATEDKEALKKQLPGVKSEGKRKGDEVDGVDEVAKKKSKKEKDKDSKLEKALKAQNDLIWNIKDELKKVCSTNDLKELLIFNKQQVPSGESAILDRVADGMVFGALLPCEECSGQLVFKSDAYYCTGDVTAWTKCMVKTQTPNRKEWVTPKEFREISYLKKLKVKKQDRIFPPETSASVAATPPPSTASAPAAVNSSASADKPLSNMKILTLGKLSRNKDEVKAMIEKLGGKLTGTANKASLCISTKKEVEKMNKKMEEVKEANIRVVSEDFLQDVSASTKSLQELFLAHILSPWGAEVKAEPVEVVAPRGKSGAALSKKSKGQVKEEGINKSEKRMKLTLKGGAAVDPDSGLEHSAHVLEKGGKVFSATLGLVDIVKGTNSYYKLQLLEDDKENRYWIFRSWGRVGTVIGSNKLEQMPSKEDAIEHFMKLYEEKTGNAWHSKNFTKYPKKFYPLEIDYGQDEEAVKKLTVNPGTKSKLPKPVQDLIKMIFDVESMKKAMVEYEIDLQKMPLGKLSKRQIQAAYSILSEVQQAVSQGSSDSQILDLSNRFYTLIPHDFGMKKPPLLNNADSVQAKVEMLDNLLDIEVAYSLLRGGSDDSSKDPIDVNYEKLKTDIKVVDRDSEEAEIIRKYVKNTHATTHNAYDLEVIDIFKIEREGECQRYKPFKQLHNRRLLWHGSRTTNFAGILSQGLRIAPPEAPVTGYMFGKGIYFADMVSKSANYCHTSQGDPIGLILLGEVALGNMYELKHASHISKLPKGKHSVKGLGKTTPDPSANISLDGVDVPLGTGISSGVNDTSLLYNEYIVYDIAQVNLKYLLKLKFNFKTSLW
Response field label takes fulfilled when Selectivity PARP2/PARP1 is strictly below 700 and not fulfilled in all other cases.

Some entries whose results are on file:
[[record]]
compound_structure = "CNC(=O)c1ccc(N2CCN(Cc3cc(C4CCCC4)c4nc(C)c(=O)[nH]c4c3)CC2)c(F)n1"
category = "fulfilled"

[[record]]
compound_structure = "CNC(=O)c1ccc(C2=CCN(Cc3cc(OC(F)F)c4nc(C)c(=O)[nH]c4c3F)CC2)c(F)n1"
category = "not fulfilled"

[[record]]
compound_structure = "CC#Cc1cc(CN2CC=C(c3ccc(C(=O)NC4CC4)nc3F)CC2)c(F)c2[nH]c(=O)c(C)nc12"
category = "not fulfilled"


INPUT: # check: Selectivity PARP2/PARP1 < 700 for `CC#Cc1cc(CN2CCN(c3ccc(C(=O)NC)nc3F)CC2)c(F)c2[nH]c(=O)c(C)nc12`
OUTPUT: not fulfilled

INPUT: # check: Selectivity PARP2/PARP1 < 700 for `CNC(=O)c1ccc(N2CCN(Cc3cc(-c4cccc(OC)c4)c4nc(C)c(=O)[nH]c4c3)CC2)c(F)n1`
OUTPUT: fulfilled

INPUT: # check: Selectivity PARP2/PARP1 < 700 for `CNC(=O)c1ccc2c(n1)COC[C@H]1CN(Cc3cc(OC(F)F)c4nc(C)c(=O)[nH]c4c3)CCN21`
OUTPUT: fulfilled

INPUT: # check: Selectivity PARP2/PARP1 < 700 for `CNC(=O)c1ccc(N2CCN(Cc3cc(OC(F)F)c4cc(C)c(=O)[nH]c4c3)CC2)c(F)n1`
OUTPUT: fulfilled

* * *

assay: in vivo; settings: BALB/c, mouse, iv, 2 mg/kg
MEASURED_PARAMETER: Cmax (ng/mL)
Give the quantity in ng/mL, number only.

Summary for this compound, `CC#Cc1cc(CN2CC=C(c3ccc(C(=O)NC)nc3F)CC2)cc2[nH]c(=O)c(C)nc12` : Cmax is 1630

* * *

target: PARP1 (Homo sapiens, UniProt P09874); experiment: Inhibition of PARP1 enzyme activity (ELISA, chemiluminescence); assay type: biochemical; details: ELISA, histone-coated plate, NAD+, 60 min at 25 °C
MEASURED_PARAMETER: log10 IC50 (log10 of the value in nM)
Parameter value (number): base-10 log of IC50 in nM.

[[record]]
compound = "CC#Cc1cc(CN2CCN(c3ccc(C#N)cn3)CC2)cc2[nH]c(=O)c(C)nc12 [Example 43]"
experimental_result = 0.18

[[record]]
compound = "CNC(=O)c1ccc(N2CCN(Cc3cc(-c4cccnc4)c4nc(C)c(=O)[nH]c4c3)CC2)c(F)n1 [Example 11]"
experimental_result = 0.48


Continue with the next compound.
Summary for this compound, CNC(=O)c1ccc(C2=CCN(Cc3cc(OC(F)F)c4nc(C)c(=O)[nH]c4c3F)CC2)c(F)n1 [Example 16] : log10 IC50 is 0.45

* * *

experiment: Pharmacokinetics in mice after intravenous injection or gavage; conditions: BALB/c, mouse, plasma, iv, 2 mg/kg
Response field label takes YES when Cmax is strictly below 3000 ng/mL and NO in all other cases.

Some entries whose results are on file:
[[record]]
compound_structure = "CNC(=O)c1ccc(N2CCN(Cc3cc(OC(F)F)c4nc(C)c(=O)[nH]c4c3)CC2)c(F)n1"
category = "NO"

[[record]]
compound_structure = "CNC(=O)c1ccc(N2CCN(Cc3cc(-c4ccccc4)c4nc(C)c(=O)[nH]c4c3)CC2)c(F)n1"
category = "YES"

[[record]]
compound_structure = "CC#Cc1cc(CN2CCN(c3ccc(C(=O)NC)nc3F)CC2)cc2[nH]c(=O)c(C)nc12"
category = "YES"

[[record]]
compound_structure = "CC#Cc1cc(CN2CCN(c3ccc(C(=O)NC4CC4)nc3F)CC2)cc2[nH]c(=O)c(C)nc12"
category = "NO"

[[record]]
compound_structure = "Cc1nc2c(OC(F)F)cc(CN3CC=C(c4ccc(C(=O)NC5CC5)nc4F)CC3)cc2[nH]c1=O"
category = "NO"


INPUT: # check: Cmax < 3000 ng/mL for `Cc1nc2c(OC(F)F)cc(CN3CCN(c4ccc(C(=O)NC5CC5)nc4F)CC3)cc2[nH]c1=O`
OUTPUT: NO

INPUT: # check: Cmax < 3000 ng/mL for `CC#Cc1cc(CN2CC=C(c3ccc(C(=O)NC4CC4)nc3F)CC2)c(F)c2[nH]c(=O)c(C)nc12`
OUTPUT: NO

* * *

assay: Pharmacokinetics in mice after intravenous injection or gavage; details: BALB/c, mouse, plasma, iv, 2 mg/kg
Documented half-life across a set of compounds
# include the unit after the value

Here are 4 compounds together with their reported answers.
[[record]]
compound = "CNC(=O)c1ccc(N2CCN(Cc3cc(OC(C)C)c4nc(C)c(=O)[nH]c4c3)CC2)c(F)n1 [Example 3]"
experimental_result = "1.9 h"

[[record]]
compound = "Cc1nc2c(OC(F)F)cc(CN3CC=C(c4ccc(C(=O)NC5CC5)nc4F)CC3)cc2[nH]c1=O [Example 42]"
experimental_result = "2.5 h"

[[record]]
compound = "CNC(=O)c1ccc(N2CCN(Cc3cc(OC(F)F)c4nc(C)c(=O)[nH]c4c3)CC2)c(F)n1 [Example 13]"
experimental_result = "1.9 h"

[[record]]
compound = "CNC(=O)c1ccc(C2=CCN(Cc3cc(OC(F)F)c4nc(C)c(=O)[nH]c4c3)CC2)c(F)n1 [Example 15]"
experimental_result = "3.8 h"


Summary for this compound, Cc1nc2c(OC(F)F)cc(CN3CCN(c4ccc(C(=O)NC5CC5)nc4F)CC3)cc2[nH]c1=O [Example 46] : half-life is 1.6 h

* * *

Recorded below: pIC50, system PARP2 (Homo sapiens, UniProt Q9UGN5).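 Also: PARP2 enzyme ELISA on histone-coated plates, Strep-HRP detection with chemiluminescence read-out, 10 min compound preincubation with enzyme, inhibition scaled between Max and Min signal controls.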
FYI, pIC50 means -log10 of a concentration in mol per litre.

Here are 3 compounds together with their reported answers.
[[record]]
compound = "CNC(=O)c1ccc(C2=CCN(Cc3cc(OC(F)F)c4nc(C)c(=O)[nH]c4c3)CC2)c(F)n1 [Example 15]"
system = "PARP2 (Homo sapiens, UniProt Q9UGN5)"
experimental_result = 6.86

[[record]]
compound = "CNC(=O)c1ccc(N2CCN(Cc3cc(OC(F)(F)F)c4nc(C)c(=O)[nH]c4c3)CC2)c(F)n1 [Example 17]"
system = "PARP2 (Homo sapiens, UniProt Q9UGN5)"
experimental_result = 6.77

[[record]]
compound = "CCONC(=O)c1ccc(N2CCN(Cc3cc(OC(F)F)c4nc(C)c(=O)[nH]c4c3)CC2)c(F)n1 [Example 65]"
system = "PARP2 (Homo sapiens, UniProt Q9UGN5)"
experimental_result = 7.10


Summary for this compound, Cc1nc2c(OC(F)F)cc(CN3CCN(c4ccc(C(=O)NC5CC5)nc4F)CC3)cc2[nH]c1=O [Example 46] : pIC50 is 7.19

Summary for this compound, CCNNC(=O)c1ccc(N2CCN(Cc3cc(OC(F)F)c4nc(C)c(=O)[nH]c4c3)CC2)c(F)n1 [Example 66] : pIC50 is 6.84
